apparent KD of MS2 coat protein by entry:
system: MS2 coat protein; test: apparent KD of MS2 coat protein; designed switch direction (-1 OFF switch, 1 ON switch): 1; higher = weaker reporter binding; details: Eterna round: R95; input ligand: FMN 200 uM

{"primary_sequence": "UGGCCAGCCUGUGCUGGGCUUUAGCAUGUACAUGAGGAUCACCCAUGUCGUGUACAUGCUUUUUGCUCGUCUUUAAA [Photon Torp-06] (puzzle: Sensor for hsa-mir-208a)", "target_or_system": "MS2 coat protein", "output_unit": "nM", "apparent KD of MS2 coat protein": 35.8}
{"primary_sequence": "AGCUAUCGAAAACGAUAGCAAAAGUAUGUACAUGAGGAUCACCCAUGUCAUGUACAAGCUUUUUGCUCGUCUUAAAA [Zipper 23 - 10] (puzzle: Sensor for hsa-mir-208a)", "target_or_system": "MS2 coat protein", "output_unit": "nM", "apparent KD of MS2 coat protein": 664}
{"primary_sequence": "AAAAGACAUGAGGAUCACCCAUGUAACGGUCGUCAAGGAUAUGCAUAGGUCCAUUGACCAGCAGAAGGUGAUACCU [Xeanlarace] (puzzle: Same State 1)", "target_or_system": "MS2 coat protein", "output_unit": "nM", "apparent KD of MS2 coat protein": 400}
{"primary_sequence": "AGUCCAGCCUGAGCUGGACUGAAGCAUGUACAUGAGGAUCACCCAUGUUCAUGUGCAAGCUUUUUGCUCGUCUUAUG [JL-shm-2.03 JL mod] (puzzle: Sensor for hsa-mir-208a)", "target_or_system": "MS2 coat protein", "output_unit": "nM", "apparent KD of MS2 coat protein": 42}
{"primary_sequence": "CAGCGCUGUCGAGAGGAUAUGCAGUGAUGGACAUGAGGAUCACCCAUGUUAGCGAUAGCAUUACAGUAGAAGGCUCUACAGCUGC [Soteed - 14] (puzzle: Same State 2)", "target_or_system": "MS2 coat protein", "output_unit": "nM", "apparent KD of MS2 coat protein": 13}
{"primary_sequence": "AAAGUACAUGAGGAUCACCCAUGUCCAAAGAAGUAAGGAUAUACGGAAAGAAAAGAAAAUGUAGAAGGUACAAGAA [Same State 1 #3] (puzzle: Same State 1)", "target_or_system": "MS2 coat protein", "output_unit": "nM", "apparent KD of MS2 coat protein": 33}
{"primary_sequence": "AAAAUACAUGAGGAUCACCCAUGUAGAAACUACACAGGAUAUCGGACGGCUAUAACCGAACGAGAAGGGUGAACCC [Onorvea] (puzzle: Same State 1)", "target_or_system": "MS2 coat protein", "output_unit": "nM", "apparent KD of MS2 coat protein": 260}
{"primary_sequence": "UUUAGUUGCGCGCAGGAUAUGUAUUAAUAUACAUGAGGAUCACCCAUGUGAGAUCGAAUAGAUCUACAGAAGGGCGAAUCGCGAC [Laonerce - 26] (puzzle: Same State 2)", "target_or_system": "MS2 coat protein", "output_unit": "nM", "apparent KD of MS2 coat protein": 32.9}
{"primary_sequence": "UGGAUCUAGGCUUGCCUGGGUCCAUGUUGACAUGAGGAUCACCCAUGUGUAUUUUAUAAGCUUUUUGUUUGUCAACA [JL A Humble Attempt mod 7] (puzzle: Sensor for hsa-mir-208a)", "target_or_system": "MS2 coat protein", "output_unit": "nM", "apparent KD of MS2 coat protein": 37}
{"primary_sequence": "GGAGAGAGAGCGCAGGAUAUUUAAGGAGAAACAUGAGGAUCACCCAUGUGAGAGAGAGAGGAGAGAGAGAAGGGUGAGAGAGAGG [Altered State 2-16 - Jieux - Same State 2] (puzzle: Same State 2)", "target_or_system": "MS2 coat protein", "output_unit": "nM", "apparent KD of MS2 coat protein": 26.7}
{"primary_sequence": "AUAAGGCAAGCUUUUUUCUCGUAGUGUAAACAUGAGGAUCACCCAUGUGCCCACCCUGGACCUUUGGAUCGCAGAAA [Geatxe] (puzzle: Sensor for hsa-mir-208a)", "target_or_system": "MS2 coat protein", "output_unit": "nM", "apparent KD of MS2 coat protein": 30.5}
{"primary_sequence": "AGUCCAGCGAAAGCUGGACAAAAGCAUGUACAUGAGGAUCACCCAUGUUCAUGUGCAAGCUUUUUGCUCGUCUUAAA [JL mod - D95 - 4] (puzzle: Sensor for hsa-mir-208a)", "target_or_system": "MS2 coat protein", "output_unit": "nM", "apparent KD of MS2 coat protein": 49.2}
{"primary_sequence": "AGAAAAGUUUACGAGGAUAUGUUCCGCAUAACAUGAGGAUCACCCAUGUGAACAAGAAAGGCGACGCAGAAGGCGUGAGCAAAAG [Mat - Same State 2 - Mod of UCT - D98] (puzzle: Same State 2)", "target_or_system": "MS2 coat protein", "output_unit": "nM", "apparent KD of MS2 coat protein": 38.8}
{"primary_sequence": "UACAAUCUAUCUGAGGAUAUCAUGAUUGUAACAUGAGGAUCACCCAUGUGCAGGAAAACUGCAUAUGAGAAGGCAGAUAGAUUGU [salish99_ss2_r3_071] (puzzle: Same State 2)", "target_or_system": "MS2 coat protein", "output_unit": "nM", "apparent KD of MS2 coat protein": 113}
{"primary_sequence": "AUCCUACAUGAGGAUCACCCAUGUGACGCCUCAAUAGGAUAUCGGGCCCACAGUCGGGAACGAGAAGGAUUGAAGC [Beatonce] (puzzle: Same State 1)", "target_or_system": "MS2 coat protein", "output_unit": "nM", "apparent KD of MS2 coat protein": 70}
{"primary_sequence": "GUUAAACAUGAGGAUCACCCAUGUCAAUGUAGUCGAGGAUAUGGGUAGCUAUGAGGCGUACUAGAAGGCGAGGAGU [Mat - Same State 1 - Mod of JL - D16] (puzzle: Same State 1)", "target_or_system": "MS2 coat protein", "output_unit": "nM", "apparent KD of MS2 coat protein": 194}
{"primary_sequence": "UAGUACAAGCUUUUUGCUUGUCUUAUUUAACAUGAGGAUCACCCAUGUAAGUUGAAAGUUAGAGAGUGCAGGUUGAA [JR_SHM208A_Sub051] (puzzle: Sensor for hsa-mir-208a)", "target_or_system": "MS2 coat protein", "output_unit": "nM", "apparent KD of MS2 coat protein": 16.8}
{"primary_sequence": "AGUCCAGCCUGAGCUGGACAAAAGCAUGUACAUGAGGAUCACCCAUGUUCAUGUACAAGCUUUUUGCUCGUCUUAGU [salish99_208a_r3_061] (puzzle: Sensor for hsa-mir-208a)", "target_or_system": "MS2 coat protein", "output_unit": "nM", "apparent KD of MS2 coat protein": 481}
{"primary_sequence": "UUGAAGACGGACAAGGAUAUGUCAAAGGAAACAUGAGGAUCACCCAUGUGGAGAUUGGAGAAGAAACAGAAGGUGUACGGAGAGA [JR_SS2_Sub008] (puzzle: Same State 2)", "target_or_system": "MS2 coat protein", "output_unit": "nM", "apparent KD of MS2 coat protein": 27.5}
{"primary_sequence": "CGUCCGGCCUGUGCUGGCCGGUGGCUUGUACAUGAGGAUCACCCAUGUUCUUGUGCUGGCUUUUUGCUCGUCUUGUG [salish99_mir208a_021] (puzzle: Sensor for hsa-mir-208a)", "target_or_system": "MS2 coat protein", "output_unit": "nM", "apparent KD of MS2 coat protein": 37}
